# System: native tau aggregates
# run description: TAU radioligand in vitro displacement assay ([3H]T808, autoradiography on human AD brain sections)
# Format: binding
# condition parameters: compound 10 nM, radioligand [3H]T808 10 nM
Classification field: 1 (yes) = % displacement of [3H]T808 (10 nM) at 10 nM at or over 30%; 0 (no) = % displacement of [3H]T808 (10 nM) at 10 nM under 30%.

Consider the following illustrative entries.
• CNc1ccn2cc(-c3ccc4c(c3)OCCCO4)nc2c1 [Example 96] = 1 (yes)
• Br.CN(C)c1ccn2cc(-c3cccc(O)c3)nc2c1 [Example 82] = 1 (yes)
• F[C@H]1CCN(c2ccn3cc(-c4ccccc4)nc3c2)C1 [Example 31] = 1 (yes)
• Cc1ccc(-c2cn3ccc(N4CCC(F)CC4)cc3n2)cc1 [Example 57] = 0 (no)

*Q* Does % displacement of [3H]T808 (10 nM) at 10 nM meet or surpass 30% for FC1CCN(c2ccn3cc(-c4ccc5c(c4)OCCO5)nc3c2)CC1 [Example 84] ?
*A* 0 (no)

Entry source: patent US11358962B2
